Biological target: T1, MHC class I molecule A*0201 (biotin (bound to streptavidin-coated plate))
T1 construct: also called A2; HLA-A2
Experiment: iTopia iScore
measure: iScore

binder	recorded-value
NLFLTGNQL [5T4 9-mer peptide 48 NLFLTGNQL]	0.107
DEVRAGAFE [5T4 9-mer peptide 66 DEVRAGAFE]	0
MPGGCSRGP [5T4 9-mer peptide 1 MPGGCSRGP]	0
NLTEVPTDL [5T4 9-mer peptide 41 NLTEVPTDL]	0.253
FEGMVVAAL [5T4 9-mer peptide 98 FEGMVVAAL]	0.051
GWVSSSSPT [5T4 9-mer peptide 14 GWVSSSSPT]	0.044
PPEDERQNR [5T4 9-mer peptide 93 PPEDERQNR]	0
VVAALLAGR [5T4 9-mer peptide 100 VVAALLAGR]	0
LALVLLGWV [5T4 9-mer peptide 11 LALVLLGWV]	0.237
SSSPTSSAS [5T4 9-mer peptide 16 SSSPTSSAS]	0
LAELAALNL [5T4 9-mer peptide 59 LAELAALNL]	0.72
AFSGSNASV [5T4 9-mer peptide 81 AFSGSNASV]	0.116
LYLPRDVLA [5T4 9-mer peptide 112 LYLPRDVLA]	0.218
FLASAVSAQ [5T4 9-mer peptide 24 FLASAVSAQ]	0.134
FSSSAPFLA [5T4 9-mer peptide 21 FSSSAPFLA]	0.116
RLRLARLAL [5T4 9-mer peptide 8 RLRLARLAL]	0.216
